System name: human alpha 7-wt nAChR (Homo sapiens, UniProt P36544)
Construct: expressed in transfected cells
Sequence (P36544 23-502): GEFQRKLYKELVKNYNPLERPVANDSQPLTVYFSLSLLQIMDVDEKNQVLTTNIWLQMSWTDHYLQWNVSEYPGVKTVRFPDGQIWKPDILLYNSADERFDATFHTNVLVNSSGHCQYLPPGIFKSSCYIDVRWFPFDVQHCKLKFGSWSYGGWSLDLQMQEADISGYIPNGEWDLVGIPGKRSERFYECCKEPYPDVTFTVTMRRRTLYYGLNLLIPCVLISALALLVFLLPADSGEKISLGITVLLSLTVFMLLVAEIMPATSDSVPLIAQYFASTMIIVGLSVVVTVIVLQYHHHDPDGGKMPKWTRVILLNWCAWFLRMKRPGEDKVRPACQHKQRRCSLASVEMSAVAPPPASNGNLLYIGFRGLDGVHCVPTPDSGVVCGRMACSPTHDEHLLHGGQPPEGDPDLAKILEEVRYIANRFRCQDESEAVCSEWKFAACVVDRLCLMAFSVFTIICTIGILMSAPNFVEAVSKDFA
Experimental details: Ca2+ flux imaging (FDSS) (Protocol B)
Assay type: cell-based
Details: potentiation of 100 μM choline; compounds 0.01 μM to 30 μM; read-out: a7-PAM-G_[33]_pEC50 pEC50 (converted)
List of EC50 values.
Measurement label: EC50 (nM)

> print(dat)
                                   compound  units.symbol  reported.value
1  Cc1cc(-c2sc(N3CC(C)OC(C)C3)nc2CNC(=O)CC2CC2)cc(C)n1 (racemic)            nM             794
2  Cc1cc(-c2sc(N3C[C@@H](C)O[C@@H](C(F)(F)F)C3)nc2CNC(=O)CC2CC2)cc(C)n1            nM            7.24
3  Cc1cc(-c2sc(N3C[C@@H](C)O[C@@H](C)C3)nc2CNC(=O)c2conc2C)ccn1            nM             759
4  Cc1cc(-c2sc(N3C[C@@H](C)O[C@@H](C)C3)nc2CNC(=O)CC2CC2)c(C)cn1            nM            3020
